assay: solvent given as SMILES; conditions: in O
quantity: solvation free energy, 298 K (kcal/mol)
The response must be a number in kcal/mol with no trailing unit.

Example compounds with recorded solvation free energy, 298 K:
{"compound": "O=C(O)C=Cc1ccccc1", "scale.unit": "kcal/mol", "solvation free energy, 298 K": -8.38}
{"compound": "ClCC(Cl)(Cl)Cl", "scale.unit": "kcal/mol", "solvation free energy, 298 K": -1.43}
{"compound": "COP(=S)(OC)Oc1ccc([N+](=O)[O-])cc1", "scale.unit": "kcal/mol", "solvation free energy, 298 K": -7.19}
{"compound": "Nc1ncnc2c1ncn2C1CC(O)C(CO)O1 (stereo not drawn)", "scale.unit": "kcal/mol", "solvation free energy, 298 K": -24.3}
{"compound": "CCCOCCO", "scale.unit": "kcal/mol", "solvation free energy, 298 K": -6.4}

Quick one: solvation free energy, 298 K for "N#CCc1ccc(C(=O)O)cc1" ? -12.9

Quick one: solvation free energy, 298 K for "CCC(C)(C)C" ? 2.51

Quick one: solvation free energy, 298 K for "Cc1[nH]c(=O)n(C(C)(C)C)c(=O)c1Cl" ? -11.1

Quick one: solvation free energy, 298 K for "OCCCl" ? -6.28

Quick one: solvation free energy, 298 K for "O=C(O)C=CC(=O)O" ? -9.96

Quick one: solvation free energy, 298 K for "Oc1ccccc1Br" ? -5.06

Quick one: solvation free energy, 298 K for "CCCc1ccccc1" ? -0.56

Quick one: solvation free energy, 298 K for "CCCCCCO[N+](=O)[O-]" ? -1.66

Quick one: solvation free energy, 298 K for "CCCCCC1CCCC1" ? 2.55

Quick one: solvation free energy, 298 K for "CN(C)CC=C(c1ccc(Br)cc1)c1cccnc1" ? -11.9

Quick one: solvation free energy, 298 K for "COc1ccc(C=O)cc1O" ? -9.04

Quick one: solvation free energy, 298 K for C=CC1CC=CCC1 (stereo not drawn) ? 0.36

Quick one: solvation free energy, 298 K for "CCc1ccc(O)cc1" ? -6.14

====

Each entry below lists one item and its recorded solvation free energy, 298 K value.
experiment: solvent given as SMILES; conditions: in O
The response must be a number in kcal/mol with no trailing unit.

Example compounds with recorded solvation free energy, 298 K:
{"compound": "CC(C)O", "scale.unit": "kcal/mol", "solvation free energy, 298 K": -4.76}
{"compound": "CCOC(=O)CCC(=O)OCC", "scale.unit": "kcal/mol", "solvation free energy, 298 K": -5.71}
{"compound": "CN1C2CCC1CC(OC(=O)C(O)c1ccccc1)C2 (configuration not stated)", "scale.unit": "kcal/mol", "solvation free energy, 298 K": -13.8}
{"compound": "ClC(Cl)=C(Cl)Cl", "scale.unit": "kcal/mol", "solvation free energy, 298 K": -0.06}
{"compound": "FCC(F)(F)F", "scale.unit": "kcal/mol", "solvation free energy, 298 K": 0.56}
{"compound": "CCSC", "scale.unit": "kcal/mol", "solvation free energy, 298 K": -1.5}
{"compound": "C=C1CCC(C(C)C)c2cc(C)ccc21 (configuration not stated)", "scale.unit": "kcal/mol", "solvation free energy, 298 K": -1.08}
{"compound": "O=C(O)c1ccccc1Cl", "scale.unit": "kcal/mol", "solvation free energy, 298 K": -7.53}
{"compound": "O=C1c2ccccc2-c2ccccc21", "scale.unit": "kcal/mol", "solvation free energy, 298 K": -5.78}
{"compound": "ClC(Cl)Cl", "scale.unit": "kcal/mol", "solvation free energy, 298 K": -1.08}

Quick one: solvation free energy, 298 K for "CCC(=O)Nc1ccc(Cl)c(Cl)c1" ? -7.78

Quick one: solvation free energy, 298 K for "CC=CC=CC" ? 0.61

Quick one: solvation free energy, 298 K for "CC(C)COC=O" ? -2.22

Quick one: solvation free energy, 298 K for "CCCCCCBr" ? 0.18

Quick one: solvation free energy, 298 K for CCCC(=O)OCCC(C)CCC=C(C)C (configuration not stated) ? -2.73

Quick one: solvation free energy, 298 K for "C#CCCCCCC" ? 0.71

Quick one: solvation free energy, 298 K for "COC(=O)C1CCCCC1" ? -3.3

Quick one: solvation free energy, 298 K for "Cc1ccccn1" ? -4.63

Quick one: solvation free energy, 298 K for "O=C(O)Cc1ccc(C(=O)O)cc1" ? -16.5

Quick one: solvation free energy, 298 K for CC1=C2CC3CCC(C)C2(CC1)C3(C)C (configuration not stated) ? 0.78

Quick one: solvation free energy, 298 K for "CCC#N" ? -3.84

Quick one: solvation free energy, 298 K for "CC(=O)OCCc1ccccc1" ? -5.5

Quick one: solvation free energy, 298 K for "CCOP(=S)(OCC)SCSCC" ? -4.37

Quick one: solvation free energy, 298 K for "ClC=C(Cl)Cl" ? -0.46

Quick one: solvation free energy, 298 K for "CCCCCCCCCC(=O)O" ? -5.28

Quick one: solvation free energy, 298 K for "CCCCCCCCC=CCCCCCCCC(=O)OC" ? -2.13

====

assay: solvent given as SMILES; conditions: in CC(C)O
Decide by solvation free energy, 298 K: equal to or exceeding -10 kcal/mol means 1, less means -1.

{"cpd.smiles": "COc1ccccc1C(=O)O", "answer.label": -1}
{"cpd.smiles": "CCCc1ccccc1", "answer.label": 1}
{"cpd.smiles": "CCC1CCCCC1", "answer.label": 1}
{"cpd.smiles": "O=C(O)C=CC(=O)O", "answer.label": -1}
{"cpd.smiles": "C1COCCO1", "answer.label": 1}
{"cpd.smiles": "c1ccc2c(c1)ccc1ccccc12", "answer.label": 1}
{"cpd.smiles": "CCC(C)(C)C", "answer.label": 1}

# next compound below
Assess whether reported solvation free energy, 298 K for "CC(C)C" sits at -10 kcal/mol or higher. 1

====

test: solvent given as SMILES; conditions: in O
Consider the cut-off -5 kcal/mol. If the recorded solvation free energy, 298 K is strictly smaller, the label is T; if not, the label is F.

{"molecule": "Cc1c(Cl)c(Cl)c(Cl)c(Cl)c1Cl", "answer.label": "F"}

solvation free energy, 298 K under -5 kcal/mol? Item: "C=CCCCCCCCCCC" F

solvation free energy, 298 K under -5 kcal/mol? Item: "CCCCCCC=O" F

solvation free energy, 298 K under -5 kcal/mol? Item: "FC(F)F" F

solvation free energy, 298 K under -5 kcal/mol? Item: "CCCCCCCCCCCCCCO" F

solvation free energy, 298 K under -5 kcal/mol? Item: CC(CC(C)(C)C)CC(C)(C)CC(C)(C)C (stereo unspecified) F

solvation free energy, 298 K under -5 kcal/mol? Item: "O=C(c1ccccc1[N+](=O)[O-])N(O)c1ccccc1" T

solvation free energy, 298 K under -5 kcal/mol? Item: "C=CC#N" F

solvation free energy, 298 K under -5 kcal/mol? Item: "C(=Cc1ccccc1)c1ccccc1" F

====

Each entry below lists one item and its recorded solvation free energy, 298 K value.
experiment: solvent given as SMILES; conditions: in O
The response must be a number in kcal/mol with no trailing unit.

Example compounds with recorded solvation free energy, 298 K:
{"compound": "CCCCN(CCC)N=O", "scale.unit": "kcal/mol", "solvation free energy, 298 K": -5.12}
{"compound": "NC(N)=O", "scale.unit": "kcal/mol", "solvation free energy, 298 K": -13.6}

Quick one: solvation free energy, 298 K for "O=C(c1cc([N+](=O)[O-])cc([N+](=O)[O-])c1)N(O)c1ccccc1" ? -15.6

Quick one: solvation free energy, 298 K for "Nc1ccc(O)c2c1C(=O)c1ccccc1C2=O" ? -9.53

Quick one: solvation free energy, 298 K for CC1CCCC(O)C1 (configuration not stated) ? -5.21

Quick one: solvation free energy, 298 K for "Nc1cc([N+](=O)[O-])cc(Cl)c1O" ? -10.2

Quick one: solvation free energy, 298 K for "CS" ? -1.18

Quick one: solvation free energy, 298 K for "Cc1ccc(CO)cc1" ? -7.12

Quick one: solvation free energy, 298 K for "C#CCCCC" ? 0.29

Quick one: solvation free energy, 298 K for "CCCCCCCCCCOC(=O)c1ccccc1C(=O)OCC" ? -6.78

Quick one: solvation free energy, 298 K for C=C(C)C1CCC2=CCCC(C)C2(C)C1 (configuration not stated) ? -0.15

Quick one: solvation free energy, 298 K for "CCOCCOC(C)=O" ? -5.31

The reported numbers originate from the CombiSolv-Exp solvation set (Vermeire and Green 2021).
